Form field: IC50 (one value per entry).
Study system: JH2 domain of human Tyk2 (Homo sapiens, UniProt P29597)
Construct: 10×His-tagged TYK2 JH2 domain (amino acid 575-876)
Sequence (P29597 575-876): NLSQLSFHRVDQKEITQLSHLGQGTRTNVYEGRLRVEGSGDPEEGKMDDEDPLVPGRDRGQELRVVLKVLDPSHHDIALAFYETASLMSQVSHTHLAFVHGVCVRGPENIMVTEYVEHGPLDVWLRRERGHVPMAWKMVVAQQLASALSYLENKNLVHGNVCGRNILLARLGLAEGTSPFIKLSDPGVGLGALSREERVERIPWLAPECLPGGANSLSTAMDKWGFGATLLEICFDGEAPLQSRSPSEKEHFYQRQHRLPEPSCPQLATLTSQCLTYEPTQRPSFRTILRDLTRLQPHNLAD
Measurement description: JH2 biochemical assay (TR-FRET probe displacement)
Assay type: binding
Assay conditions: JH2 biochemical assay
Counter-ions that a name gives are not always drawn.

Below, 3 molecules whose answers are already recorded.
>  <Molecule>
CC(=O)Nc1cc2c(cn1)C1(CC1)CN2c1cc(C)nc(N2CCC(C)(O)C2)n1 (stereo not shown)

>  <Measured parameter>
IC50

>  <Obs value>
10 to 100 nM

$$$$
>  <Molecule>
CC(=O)Nc1cc2c(cn1)C1(CC1)CN2c1cc(NC2COC2)nc(C(C)(F)F)n1

>  <Measured parameter>
IC50

>  <Obs value>
≤ 10 nM

$$$$
>  <Molecule>
CC(=O)Nc1cc2c(cn1)C1(CC1)CN2c1cc(N2CCOCC2)nc(C(C)(F)F)n1

>  <Measured parameter>
IC50

>  <Obs value>
≤ 10 nM

$$$$

Pending molecule:
Tell me IC50 reported for CC(=O)Nc1cc2c(cn1)C1(CC1)CN2c1cc(C)cc(OC2CCC(F)C2)n1 (stereo not shown) [Example 353, trifluoroacetate]
100 to 1000 nM

Numbers sourced from patent US20260258032A1.
